Measured values drawn from ChEMBL document CHEMBL5252676 for this set.

assay: Aqueous solubility of compound assessed as Cmax incubated for 3 days by UV spectrophotometer based shake-flask method; assay type: physicochemical; conditions: water (aqueous); time 3 day; read-out: Cmax
Classify as follows. Reported solubility thermodynamic at 72 h greater than or equal to 600 µM: Yes. Reported solubility thermodynamic at 72 h below: No.

Some solved cases for reference:
- structure-smiles: "O=C(O)c1cc(O)c(O)c(O)c1"
  class: "Yes"
- structure-smiles: "O=C(OCCCOC(=O)c1ccc(O)c(O)c1)c1ccc(O)c(O)c1"
  class: "No"
- structure-smiles: "O=C(OCCCCOC(=O)c1cc(O)c(O)c(O)c1)c1cc(O)c(O)c(O)c1"
  class: "No"

Now look at this one.
INPUT: // inclusive: solubility thermodynamic at 72 h at least 600 µM? input: "O=C(NCCCOC(=O)c1cc(O)c(O)c(O)c1)c1cc(O)c(O)c(O)c1"
OUTPUT: Yes

----------
assay: Cytotoxicity against HUVEC confluent cells assessed as inhibition of cell growth incubated for 48 hrs by fluorescence based assay; assay type: toxicity; conditions: human
readout-label: IC50 at 48 h (µM)
Numbers only, in µM.

INPUT: Report IC50 at 48 h for "O=C(OCCCOC(=O)c1cc(O)c(OCc2ccccc2)c(O)c1)c1cc(O)c(OCc2ccccc2)c(O)c1" please.
OUTPUT: 12.1

----------
assay: Aqueous solubility of compound assessed as Cmax incubated for 3 days by UV spectrophotometer based shake-flask method; assay type: physicochemical; settings: water (aqueous); time 3 day; read-out: Cmax
readout-label: log10 of solubility thermodynamic at 72 h (log10 of the value in µM)
Annotation: log10 of solubility thermodynamic at 72 h, µM basis.

- compound: "O=C(OCCCOC(=O)c1cc(O)c(O)c(O)c1)c1ccccc1"
  test-result: 2.78
- compound: "COCOc1cc(C(=O)OCCCOC(=O)c2cc(OCOC)c(OCc3ccccc3)c(OCOC)c2)cc(OCOC)c1OCc1ccccc1"
  test-result: 0.48
- compound: "O=c1oc2c(O)c(O)cc3c(=O)oc4c(O)c(O)cc1c4c23 [ELLAGIC ACID]"
  test-result: 1.26
- compound: "O=C(NCCCNC(=O)c1cc(O)c(O)c(O)c1)c1cc(O)c(O)c(O)c1"
  test-result: 2.79
- compound: "O=C(OCCCOC(=O)c1cc(O)c(O)c(O)c1)c1cc(O)c(O)c(O)c1"
  test-result: 3.43

Now, please, on to the next compound.
INPUT: For the compound "O=C(OCCCOC(=O)c1cc(O)c(O)c(O)c1)c1ccc(O)c(O)c1" , what log10 of solubility thermodynamic at 72 h is on record?
OUTPUT: 2.45
